- System: MDA-MB-231 breast
- Method: NCI-60 one-dose screen, 48 h (100 = growth as untreated, 0 = no growth, -100 = all killed)
- Reported Conditions: 10 µM unless noted
Compounds without any hit were thinned out: in the full panel of roughly 83,000, 20% have a hit.
Decide using growth: a value greater than or equal to 60% is 1, a smaller one is -1.

CCN(CC)c1ccc(/C=N/NC(=O)c2ccccc2Nc2ccnc(C(F)(F)F)c2)c(O)c1	-1
COC(=O)[C@H](C)NC(=O)c1ccc(NC(=O)c2[nH]c(C)c(Cl)c2Cl)c(OCCN)c1	1

Check this compound for growth at or above 60%: `COc1ccccc1-c1nc2ccc3[nH]ncc3c2c2c1CCCC2`
1

Check this compound for growth at or above 60%: `CCc1ccc(Cc2cnc(NC(=O)c3cc(C)oc3C)s2)cc1`
-1

Check this compound for growth at or above 60%: `O=C1/C(=C/c2cccc([N+](=O)[O-])c2)COc2ccc(O)c(O)c21`
-1
